- ASSAY_NOTES: inhibitors of the yeast RAM network, pilot screen, dse1pr::URA3 reporter, 5-FOA selection (AID 869);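 note: 0% = DMSO wells with no growth and 100% = 10 µM 1-NA-PP1 with full growth; RAM network block rescues cells from 5-FOA so hits raise OD615 growth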
- SETUP_CONDITIONS: S. cerevisiae dse1pr::URA3 5-FOA growth, OD615, 2 d; at 10 µM; hits give high values; strain carries analog-sensitive mutant Cbk1 kinase
Listing of entries alongside the reported inhibition.
// note: answer is a bare numeric in %

Reported inhibition for Cc1ccc(Cn2c3ccccc3c3cn[nH]c(=O)c32)cc1 : what is it?
2.17

Reported inhibition for Cc1cc2ccccc2n1CCNC(=O)C(C)(C)C : what is it?
1.72

Reported inhibition for Cc1ccc2oc(Nc3nc(C)cc(C)n3)nc2c1 : what is it?
1.01

Reported inhibition for Brc1ccc2c(c1)c1nc3ccccc3nc1n2CCN1CCOCC1 : what is it?
4.42

Reported inhibition for CCCn1c(CN2CCCCC2C)nc2c1c(=O)n(C)c(=O)n2C (configuration not stated) : what is it?
1.64

Reported inhibition for CCOc1ccc(C2c3c(oc4ccccc4c3=O)C(=O)N2c2ccccn2)cc1OC (configuration not stated) : what is it?
1.44

Reported inhibition for Cc1cc(C)n(C(=O)c2ccc(NC(=O)C3CC3)cc2)n1 : what is it?
1.58

Reported inhibition for CC(=O)c1ccc(N2CCN(C(=O)c3cc4c(-c5ccccc5F)nn(C)c4s3)CC2)cc1 : what is it?
2.27

Reported inhibition for Nc1ccc2nc(-c3ccc(Cl)cc3)[nH]c2c1 : what is it?
0.935

Reported inhibition for Cn1c(C(=O)N2CCCCCC2)cc2c(=O)n(C)c3ccccc3c21 : what is it?
1.33

Reported inhibition for COc1ccccc1NC(=O)CSc1nnc(C)o1 : what is it?
2.02

Reported inhibition for CCOC(=O)CSc1nc2nc(C)cc(C)n2n1 : what is it?
2.5

====

Listing of entries alongside the reported viability increase.
- ASSAY_NOTES: viability gain of MRP-1-high H69AR cells under doxorubicin, pilot screen, MRP-1 activator project, CellTiter-Glo, duplicate (AID 807);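 note: compound pretreatment 18-22 h then 72 h combined with doxorubicin; 0% = doxorubicin alone and 100% = vehicle without doxorubicin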
- SETUP_CONDITIONS: H69AR viability with doxorubicin, CellTiter-Glo luminescence; at 10 µM; hits give high values
// note: answer is a bare numeric in %

Known results for compounds:
| COMPOUND | viability increase, % |
| --- | --- |
| CCOC(=O)CC1=C(C#N)C(c2cccnc2)C(C(=O)OCC)=C(N)O1 (stereo not drawn) | -3.12 |
| CCOC(=O)Cn1c(C(C)=O)nc2ccccc21 | 0.94 |

Reported viability increase for COc1cccc(-c2nnc(SCC(=O)N3CC(C)CC(C)C3)o2)c1 (stereo not drawn) : what is it?
-3.25

Reported viability increase for Cc1onc(-c2ccccc2Cl)c1C(=O)OCn1nnc2ccccc2c1=O : what is it?
-1.94

Reported viability increase for CCOC(=O)CSc1nc2nc(C)cc(C)n2n1 : what is it?
-1.33

Reported viability increase for CCC1(C)C2(C#N)C(N)=NC(OC)(OC)C12C#N (stereo not drawn) : what is it?
-0.83

Reported viability increase for COCCOC(=O)C1=C(C)NC(=O)NC1C1CC=CCC1 (stereo not drawn) : what is it?
0.63

Reported viability increase for Cc1ccc2oc(=O)c3cc(C(=O)NCc4ccco4)sc3c2c1 : what is it?
-2.9
